A collection of molecules and their measured pIC50
System tested: human CYP1A2 (Homo sapiens, UniProt P05177)
Construct: purchased Corning Inc
Sequence (P05177 1-516): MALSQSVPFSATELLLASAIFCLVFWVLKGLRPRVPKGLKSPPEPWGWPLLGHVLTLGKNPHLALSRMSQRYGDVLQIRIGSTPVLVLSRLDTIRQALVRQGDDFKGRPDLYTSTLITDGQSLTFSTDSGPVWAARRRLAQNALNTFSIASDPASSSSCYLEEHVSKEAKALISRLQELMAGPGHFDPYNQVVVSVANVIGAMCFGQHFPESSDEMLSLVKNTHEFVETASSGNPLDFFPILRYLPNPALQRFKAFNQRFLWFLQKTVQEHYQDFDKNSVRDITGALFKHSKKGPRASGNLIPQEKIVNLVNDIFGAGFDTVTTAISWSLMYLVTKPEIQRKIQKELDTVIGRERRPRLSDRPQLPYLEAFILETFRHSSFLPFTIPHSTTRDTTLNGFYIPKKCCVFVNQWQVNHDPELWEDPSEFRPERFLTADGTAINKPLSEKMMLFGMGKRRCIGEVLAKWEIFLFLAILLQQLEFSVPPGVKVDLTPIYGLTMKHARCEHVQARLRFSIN
Procedure details: CYP1A2 inhibition, 7-ethoxyresorufin fluorescence assay
Format: biochemical
Friendly reminder that pIC50 comes from taking -log10 of the concentration in mol/L.

Examples with answers:
Chem smiles	pIC50
O=c1oc2c(CN3CCCCC3)c(O)ccc2cc1-c1ccccc1	4.19
COc1ccc(-c2cc3cccc(OC(C)=O)c3oc2=O)cc1	4.59
COc1ccc(-c2cc3ccc(OC(C)=O)cc3oc2=O)cc1	3.24
O=c1oc2cc(O)ccc2cc1-c1ccccc1	5.10
COc1cccc(-c2cc3ccc(OC)cc3oc2=O)c1	4.46

Turning to the following molecule.
**Q:** Data request, read-out pIC50, for `CC(=O)Oc1ccc2cc(-c3ccc(F)cc3)c(=O)oc2c1`
**A:** 3.94

====

System tested: human CYP1A2 (Homo sapiens, UniProt P05177)
Construct: purchased Corning Inc
Procedure details: CYP1A2 inhibition, 7-ethoxyresorufin fluorescence assay
Type: biochemical
Reported pIC50 values for the following compounds.
The value called pIC50 is obtained by taking minus log10 of the concentration in mol/L.

**Q:** Could you tell me which pIC50 is on file for O=c1oc2ccccc2cc1-c1cccc(O)c1 [derivative 31] ?
**A:** 5.15

**Q:** Please give the result for O=c1oc2ccccc2cc1-c1ccc(O)cc1 [derivative 29] too.
**A:** 4.59

**Q:** Lookup CC(=O)Oc1ccc2cc(-c3ccccc3)c(=O)oc2c1 [derivative 52]
**A:** 4.10

**Q:** What would you report for COc1ccc(-c2cc3cccc(O)c3oc2=O)cc1 [derivative 33] ?
**A:** 4.07

**Q:** What do we get for COc1cc(OC)cc(-c2cc3cc(Cl)cc(Cl)c3oc2=O)c1 [derivative 34] ?
**A:** 4.52

====

System tested: MAO-B (Homo sapiens)
Construct: purchased Sigma-Aldrich
Sequence (P27338 whole entry): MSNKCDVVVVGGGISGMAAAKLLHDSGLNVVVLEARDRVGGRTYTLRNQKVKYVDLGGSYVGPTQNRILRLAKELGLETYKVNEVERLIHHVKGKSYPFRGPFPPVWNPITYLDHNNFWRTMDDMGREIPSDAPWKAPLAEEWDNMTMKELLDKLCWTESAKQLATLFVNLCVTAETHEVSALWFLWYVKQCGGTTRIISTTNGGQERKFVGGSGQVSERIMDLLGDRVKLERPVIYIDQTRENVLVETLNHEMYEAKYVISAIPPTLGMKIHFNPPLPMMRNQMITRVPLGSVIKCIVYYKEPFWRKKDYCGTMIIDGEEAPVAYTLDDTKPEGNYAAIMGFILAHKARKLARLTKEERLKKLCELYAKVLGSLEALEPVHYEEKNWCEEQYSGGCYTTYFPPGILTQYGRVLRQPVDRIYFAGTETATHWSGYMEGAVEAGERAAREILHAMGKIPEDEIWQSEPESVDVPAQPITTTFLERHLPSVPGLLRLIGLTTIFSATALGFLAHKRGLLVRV
Procedure details: continuous spectrophotometric MAO-B inhibition assay
Assay type: biochemical
Assay conditions: LiPE = pIC50 - QPlogPo/w, new analogs and pargyline
Record y whenever LiPE is at 3 or higher; record n when lower.

Here's what some known entries look like.
Chem smiles	Category label
COc1ccc(-c2cc3ccc(O)cc3oc2=O)cc1	y
Cc1ccc2oc(=O)c(-c3ccc(C(F)(F)F)cc3)cc2c1	n
COc1cc(OC)cc(-c2cc3cc(OC)ccc3oc2=O)c1	y
COc1ccc2oc(=O)c(-c3ccc(N(C)C)cc3)cc2c1	n
COc1ccc2cc(-c3ccc(OC(C)=O)c(F)c3)c(=O)oc2c1	y

**Q:** Is the recorded value of LiPE equal to or greater than 3 for this molecule? `COc1cccc(-c2cc3cc(OC)ccc3oc2=O)c1`
**A:** y

**Q:** Next: `COc1ccc(-c2cc3ccc(OC(C)=O)cc3oc2=O)cc1`
**A:** y

**Q:** // repeat for `COc1ccc2cc(-c3ccc(O)c(F)c3)c(=O)oc2c1` and report
**A:** y

**Q:** Subsequent entry: `O=c1oc2ccc(O)cc2cc1-c1ccc(F)cc1`
**A:** y
